The values you see were collected from ChEMBL document CHEMBL3507680.

# assay method text: Human HepG2 cell viability assay in 384 well format
# Assay type: toxicity, cell-based
# Design: dose 125 nL, time 70.5 hour; concentration not given beside the values
# condition parameters: HepG2 cells, read-out: Inhibition
measured property: cytotoxicity at 70.5 h (%)

compound="COCC(C)NC(=O)c1nnn(-c2ccc(Br)cc2)n1 (stereo unspecified)" measured_property="cytotoxicity at 70.5 h" unit_abbrev=% quantitative_readout=10.9
compound=Cc1ccc(C(=O)N2Cc3ccccc3OC3(CCOCC3)C2)cn1 measured_property="cytotoxicity at 70.5 h" unit_abbrev=% quantitative_readout=30.6
compound="CSC(C)C(=O)NS(=O)(=O)CCc1ccccc1 (stereo unspecified)" measured_property="cytotoxicity at 70.5 h" unit_abbrev=% quantitative_readout=-2.58
compound="COCCC1(CO)CCCN(C(=O)c2cc(=O)[nH]c(=O)[nH]2)C1 (stereo unspecified)" measured_property="cytotoxicity at 70.5 h" unit_abbrev=% quantitative_readout=-8.57
compound="CN(C)c1ccc(C(=O)N2CCCC2c2cnn(C)c2)nn1 (stereo unspecified)" measured_property="cytotoxicity at 70.5 h" unit_abbrev=% quantitative_readout=-11.7
compound=COc1cc(CNCc2ccnc(N3CCOCC3)c2)cc(Cl)c1OC measured_property="cytotoxicity at 70.5 h" unit_abbrev=% quantitative_readout=-18.7
compound="Cc1ncc(CN(C)CC(O)c2ccc(Br)cc2)s1 (stereo unspecified)" measured_property="cytotoxicity at 70.5 h" unit_abbrev=% quantitative_readout=-12
compound=COCCCN1CC2(CCN(C(=O)c3ccc(=O)n(C)c3)CC2)CC1=O measured_property="cytotoxicity at 70.5 h" unit_abbrev=% quantitative_readout=-9.99
compound=O=C(CSc1ncccn1)N1C[C@H]2CC[C@@H]1CN(Cc1ccncc1)C2 measured_property="cytotoxicity at 70.5 h" unit_abbrev=% quantitative_readout=-0.441
compound=COCc1ncc(CN2CCC3(CCNC(=O)CC3)CC2)cn1 measured_property="cytotoxicity at 70.5 h" unit_abbrev=% quantitative_readout=-5.72
compound=c1n[nH]cc1CCCN1CCC(OC2CCCCC2)CC1 measured_property="cytotoxicity at 70.5 h" unit_abbrev=% quantitative_readout=0.00847

* * *

The reader will find reported cytotoxicity at 70.5 h values listed item by item below.
# assay method text: Human HepG2 cell viability assay in 384 well format
# Assay type: toxicity, cell-based
# Parameters: dose 125 nL, time 70.5 hour; concentration not given beside the values
# condition parameters: HepG2 cells, read-out: Inhibition
measured property: cytotoxicity at 70.5 h (%)

compound=Brc1ccc(C2(NCc3noc(C4CC4)n3)CCC2)cc1 unit_abbrev=% quantitative_readout=2.53
compound="COc1ccc(N(Cc2ccco2)C(=O)C2CCCO2)cc1F (configuration not stated)" unit_abbrev=% quantitative_readout=-2.54
compound=CN(C)[C@H]1CN(C(=O)c2ccc3sc4c(c3c2)CCNC4=O)C[C@@H]1O unit_abbrev=% quantitative_readout=-1.45
compound="CCCn1cnnc1CNC1CCSC1 (configuration not stated)" unit_abbrev=% quantitative_readout=-7.63
compound="Cc1nc2n(n1)CC(NCc1c(Cl)ccc3cccnc13)CC2 (configuration not stated)" unit_abbrev=% quantitative_readout=-9.95
compound=O=C(CNC(=O)C1CC1)NCC1CCCC1 unit_abbrev=% quantitative_readout=4.06
compound=Cc1ccccc1CN1CC[C@@]2(O)CCN(C(=O)C3CCC3)C[C@H]2C1 unit_abbrev=% quantitative_readout=2.03
compound="CN1CCc2[nH]nc(C(=O)N3CCC4(CN(C)C(=O)O4)C3)c2C1 (configuration not stated)" unit_abbrev=% quantitative_readout=-6.62
compound=Cc1nc(CSc2ccc(C(F)(F)F)cn2)no1 unit_abbrev=% quantitative_readout=-9.49
compound="COc1ccc(CN2CCc3ncnc(C4CCOC4)c3CC2)cc1 (configuration not stated)" unit_abbrev=% quantitative_readout=13.2
compound=Cc1csc(CNC(=O)NCc2ccc3c(c2)OCCO3)n1 unit_abbrev=% quantitative_readout=-14.3
compound="Cn1ccnc1CC1CCCN(Cc2noc(C3CC3)n2)C1 (configuration not stated)" unit_abbrev=% quantitative_readout=-9.18
